The values you see were collected from PubChem BioAssay (NCATS).

Reported activation by item:
test summary: qHTS assay for small molecule activators of the p53 signaling pathway (AID 651743); note: series mostly up to about 92 µM; % of control where 0% means no effect
test context: HCT-116 p53RE-bla, beta-lactamase FRET ratio, 16 h; hits give high values
Inconclusive results are not listed.

{"columns": ["compound", "activation (%)"],
 "data": [
  ["O=[N+]([O-])c1cccc(C(F)(F)F)c1", 2.87],
  ["CCOc1cccc(N)c1", 0.42],
  ["Cc1ccccc1C(N)=O", 1.09],
  ["O=C(O)/C=C/C(=O)O", -2.03],
  ["CCOC(C)(C)C", -0.539],
  ["CCC(C)(C)C(=O)O", 0.0165],
  ["O=C(O)c1ccc(CO)o1", -2.63],
  ["CC/C(C)=N/O", -0.712],
  ["CC(C)(c1cc(Br)c(OCC(Br)CBr)c(Br)c1)c1cc(Br)c(OCC(Br)CBr)c(Br)c1 (stereo not given)", 2.84],
  ["Cc1cc(C)cc(N)c1", -1.89],
  ["NS(=O)(=O)O", -0.9],
  ["Nc1ccccc1S(=O)(=O)O", -0.779],
  ["CC(=O)CCc1ccccc1", -1.61],
  ["O=c1[nH][nH]c(=O)c2cc([N+](=O)[O-])ccc12", -3.95],
  ["O=C1C=CCCC1", -3.28],
  ["CCC(C)=O", -2.15],
  ["C=CCCCCCCC=C", 0.568],
  ["Cc1ccc(C)cc1", -3.21],
  ["CCCCOCCOCCOCCCC", -0.253],
  ["CCCCC/C=C/C=C/C=O", -11.3],
  ["C=CCOC(=O)CCCCCCCC", -2.19],
  ["C=CCCC", -0.508],
  ["CC=O", 0.53],
  ["C=C(C)C(=O)OC", -0.845],
  ["N#Cc1ccccc1", -1.56],
  ["O=Cc1ccc(CO)o1", -2.06],
  ["O=C1CCC(=O)O1", 0.572],
  ["COCCOC(=O)c1ccccc1C(=O)OCCOC", -1.05],
  ["C(=C/c1ccccc1)/c1ccccc1", -2.17],
  ["Nc1c(Cl)cc(Cl)cc1Cl", -0.29],
  ["Nc1ccc(F)cc1F", -3.46],
  ["CC(C)Cc1nccs1", 0.156],
  ["O=C(O)c1c(Cl)cccc1Cl", -0.426],
  ["BrC/C=C/CBr", 0.265],
  ["N#CCc1ccccc1[N+](=O)[O-]", -2.66],
  ["C=CC(=O)NC(C)C", -0.785],
  ["O=C(O)c1ccccc1C(=O)O", -2.08],
  ["NC(=O)/N=N/C(N)=O", -0.505],
  ["CC(C)c1ccccc1", 0.723],
  ["C1CCOC1", 1.06],
  ["NC(=O)CCCCC(N)=O", -2.38],
  ["O=C(Cl)c1ccccc1[N+](=O)[O-]", 0.51],
  ["C=Cc1ccccc1C=C", -1.45],
  ["Nc1cc(S(=O)(=O)O)ccc1O", -1.55],
  ["Clc1cc(Cl)cc(Cl)c1", -2.32],
  ["Cc1ccc(C)c(N)c1", -2.64],
  ["CC1CCC2CC1C2(C)C (stereo not given)", -0.467],
  ["NCCCCCCN", -1.12],
  ["Cc1cccc(C(=O)O)c1", -0.475],
  ["Nc1ccccc1[N+](=O)[O-]", -3.02],
  ["c1ccc2c(c1)Oc1ccccc1S2", 0.189],
  ["C=CCCCC", 0.701],
  ["Nc1cc(Cl)c([N+](=O)[O-])cc1O", -0.259],
  ["CSCCC=O", -3.46],
  ["Cc1cc([N+](=O)[O-])ccc1N", -4.49]
]}
